Values were extracted from patent US11179383B2.

target-entity: α4β7 integrin (Homo sapiens, UniProt P13612+P26010)
Construct: monitoring the capture of α4β7 integrin expressing cells on a recombinant MadCAM-1 extracellular domain-coated plate; endogenous in cells; host or cells: RPMI8866 cells
Sequence (P13612 34-1032): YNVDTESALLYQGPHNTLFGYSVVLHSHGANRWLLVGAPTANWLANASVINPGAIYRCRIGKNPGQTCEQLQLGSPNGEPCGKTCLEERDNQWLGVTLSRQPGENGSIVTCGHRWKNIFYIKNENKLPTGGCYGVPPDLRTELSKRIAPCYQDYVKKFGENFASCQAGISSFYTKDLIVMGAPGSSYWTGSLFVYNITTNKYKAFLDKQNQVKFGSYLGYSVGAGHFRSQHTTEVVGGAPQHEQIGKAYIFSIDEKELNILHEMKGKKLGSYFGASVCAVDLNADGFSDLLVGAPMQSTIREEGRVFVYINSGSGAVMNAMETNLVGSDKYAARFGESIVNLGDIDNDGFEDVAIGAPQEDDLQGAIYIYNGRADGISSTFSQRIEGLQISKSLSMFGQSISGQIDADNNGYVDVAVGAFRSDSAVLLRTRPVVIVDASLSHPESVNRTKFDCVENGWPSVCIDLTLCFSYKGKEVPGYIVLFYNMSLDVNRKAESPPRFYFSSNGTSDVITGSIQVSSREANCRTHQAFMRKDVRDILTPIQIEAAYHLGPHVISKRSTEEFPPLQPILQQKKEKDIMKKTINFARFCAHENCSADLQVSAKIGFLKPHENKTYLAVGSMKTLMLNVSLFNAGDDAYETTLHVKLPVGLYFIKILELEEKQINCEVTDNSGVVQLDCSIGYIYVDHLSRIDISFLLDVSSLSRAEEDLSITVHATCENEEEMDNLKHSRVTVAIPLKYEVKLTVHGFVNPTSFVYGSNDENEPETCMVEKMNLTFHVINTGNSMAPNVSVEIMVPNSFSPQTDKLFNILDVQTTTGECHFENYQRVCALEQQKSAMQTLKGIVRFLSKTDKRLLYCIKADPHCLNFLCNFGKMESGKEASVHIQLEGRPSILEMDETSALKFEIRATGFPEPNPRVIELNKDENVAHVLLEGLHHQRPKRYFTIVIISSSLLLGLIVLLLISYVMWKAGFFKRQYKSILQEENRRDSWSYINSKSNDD
Sequence (P26010 20-798): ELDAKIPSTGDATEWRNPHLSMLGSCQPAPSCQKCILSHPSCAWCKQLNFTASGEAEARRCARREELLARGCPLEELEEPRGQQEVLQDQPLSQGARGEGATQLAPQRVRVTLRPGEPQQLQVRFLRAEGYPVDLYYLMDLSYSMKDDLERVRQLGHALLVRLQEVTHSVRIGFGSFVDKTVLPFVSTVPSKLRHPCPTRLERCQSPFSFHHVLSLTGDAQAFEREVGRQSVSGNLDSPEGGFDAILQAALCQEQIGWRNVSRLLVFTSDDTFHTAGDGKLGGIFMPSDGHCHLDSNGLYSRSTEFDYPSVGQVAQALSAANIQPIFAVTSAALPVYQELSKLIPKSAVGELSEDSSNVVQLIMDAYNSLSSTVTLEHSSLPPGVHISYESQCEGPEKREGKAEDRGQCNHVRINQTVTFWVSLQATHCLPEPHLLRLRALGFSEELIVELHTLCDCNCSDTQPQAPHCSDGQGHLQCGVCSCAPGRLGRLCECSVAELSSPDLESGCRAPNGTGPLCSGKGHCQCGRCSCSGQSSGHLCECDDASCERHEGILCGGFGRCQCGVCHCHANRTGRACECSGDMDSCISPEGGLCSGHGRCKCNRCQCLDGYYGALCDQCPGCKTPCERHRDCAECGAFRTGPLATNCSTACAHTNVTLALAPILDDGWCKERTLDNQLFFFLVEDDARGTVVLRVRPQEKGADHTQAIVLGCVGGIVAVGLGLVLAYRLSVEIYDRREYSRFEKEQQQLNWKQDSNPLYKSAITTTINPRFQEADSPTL
assay-remarks: α4β7 Integrin Cell Capture Assay
Format: cell-based
measurement-setup: capture of α4β7 integrin expressing RPMI8866 cells on recombinant MadCAM-1 extracellular domain-coated plate; DMEM+0.5% FBS+0.5 mM MnCl2; read-out: EC50 α4β7
One threshold, 30 nM, splits the recorded EC50 values: lower ones are true, equal or higher ones are false.

{"columns": ["compound", "answer-label"],
 "data": [
  ["Cc1ccnc(-c2ccc(C[C@H](NC(=O)c3c(F)cc(N4CCOC[C@@H]4C(F)(F)F)cc3F)C(=O)O)c3ccccc23)c1C(F)(F)F", "true"],
  ["CC[C@@H](Nc1cc(F)c(C(=O)N[C@@H](Cc2ccc(-c3c(C)c4cc(F)ccc4n(C)c3=O)c3nccnc23)C(=O)O)c(F)c1)C(F)(F)F", "true"],
  ["CCOCc1cc(OC)c(-c2ccc(C[C@@H](NC(=O)c3c(F)cc(NS(=O)(=O)c4ccc(-c5ccnc(F)c5)cc4)cc3F)C(=O)O)c3cnn(C)c23)c(OC)c1 (single isomer, unassigned)", "true"],
  ["CCOCc1cc(OC)c(-c2ccc(C[C@@H](NC(=O)c3c(F)cc(NS(=O)(=O)c4ccc(-c5ccnc(F)c5)cc4)cc3F)C(=O)O)c3c2cnn3C)c(OC)c1 (single isomer, unassigned)", "false"],
  ["Cc1nc(-c2ccc(C[C@H](NC(=O)c3c(F)cc(N4CCOC[C@@H]4C(F)(F)F)cc3F)C(=O)O)c3ccccc23)c(=O)n(C)c1C", "true"]
]}

Input COc1cc(C)n(C)c(=O)c1-c1ccc(C[C@H](NC(=O)c2c(F)cc(N3CCOC[C@@H]3C(F)(F)F)cc2F)C(=O)O)c2ccccc12 (single isomer, unassigned) [Example 125] ; condition: EC50 strictly below 30 nM. Does it hold? true

Just wondering, is EC50 of O=C(N[C@@H](Cc1ccc(-c2nccc(Cl)c2C(F)(F)F)c2cccnc12)C(=O)O)c1c(Cl)cccc1Cl below 30 nM? true
